# System: KM12 cells (harboring endogenous TPM3-TRKA fusion gene)
# protocol.summary: KM12 cell proliferation assay (CellTiter-Glo, 72 hours)
# Assay type: cell-based
# experimental.context: Homo sapiens, KM12 colorectal cell line, 72 hours incubation
Please provide measured pIC50 for the entries that follow.
Reminder that pIC50 is minus the log10 of a molar concentration.

Fill in reported pIC50 for this entry: C[C@H]1Nc2ccn3ncc(c3n2)C(=O)NCCOc2c(Br)cc(F)cc21
8.30

Note pIC50 for the compound shown: C[C@H]1Nc2ccn3ncc(c3n2)C(=O)NC[C@@H](CO)Oc2c(F)cc(F)cc21
7.67

Hello, please tell me recorded pIC50 for this one: CC(C)N1Cc2c(ccc(F)c2Cl)O[C@@H](C)CNC(=O)c2cnn3ccc1nc23
9.70

Input C[C@H]1CNC(=O)c2cnn3ccc(nc23)N[C@H](C)c2cc(F)cc(Cl)c2O1 , output reported pIC50.
9.70

----------
Provide the reported pIC50 of each item.
# Tested on: KM12 cells (harboring endogenous TPM3-TRKA fusion gene)
# protocol.summary: KM12 cell proliferation assay (CellTiter-Glo, 72 hours)
# Type: cell-based
# experimental.context: Homo sapiens, KM12 colorectal cell line, 72 hours incubation
The scale used: pIC50 is minus the common logarithm of the concentration in molar units.

Provide only the value of recorded pIC50 for C[C@H]1Nc2ccn3ncc(c3n2)C(=O)NCCOc2c(O)cc(F)cc21 [Compound 17]
7.81

For the compound CC(C)N1Cc2cc(F)cc(F)c2OCCNC(=O)c2cnn3ccc1nc23 [Compound 9] , report pIC50.
8.28

# return recorded pIC50 for input C[C@H]1CNC(=O)c2cnn3ccc(nc23)N[C@H](C)c2c(ccc(F)c2F)O1 [Compound 11]
9.70

Please list pIC50 recorded for the compound C[C@H]1CNC(=O)c2cnn3ccc(nc23)N[C@H](C)c2cc(F)cc(Br)c2O1 [Compound 7]
9.70

----------
# Test system: KM12 cells (harboring endogenous TPM3-TRKA fusion gene)
# protocol.summary: KM12 cell proliferation assay (CellTiter-Glo, 72 hours)
# Assay type: cell-based
# experimental.context: Homo sapiens, KM12 colorectal cell line, 72 hours incubation
quantity.kind: pIC50
Reminder that pIC50 means the negative base-10 logarithm of the concentration expressed in mol/L.

Give recorded pIC50. C[C@H]1CNC(=O)c2cnn3ccc(nc23)N[C@H](C)c2cc(F)cc(-c3cnn(C)c3)c2O1 [Compound 18]
7.63

Using the record for CC(C)Oc1cc(F)cc2c1OCCNC(=O)c1cnn3ccc(nc13)N[C@@H]2C [Compound 15] , state its measured pIC50.
8.70

Identify measured pIC50 corresponding to C[C@H]1Nc2ccn3ncc(c3n2)C(=O)NCCOc2c(Cl)cc(F)cc21 [Compound 6]
8.38

For C[C@H]1CNC(=O)c2cnn3ccc(nc23)N[C@H](C)c2cc(F)cc(F)c2O1 [Compound 1] , write its pIC50.
9.70

----------
# Tested on: KM12 cells (harboring endogenous TPM3-TRKA fusion gene)
# protocol.summary: KM12 cell proliferation assay (CellTiter-Glo, 72 hours)
# Type: cell-based
# experimental.context: Homo sapiens, KM12 colorectal cell line, 72 hours incubation
Exercise: state measured IC50 for each of the molecules provided.
Dear colleague, please return just the value in nM, with no unit written.

Return value of IC50 for input Cc1nn(C)cc1-c1cc(F)cc2c1O[C@@H](C)CNC(=O)c1cnn3ccc(nc13)N[C@@H]2C , no commentary.
6.4

Supply IC50 value. Item: C[C@H]1CNC(=O)c2cnn3ccc(nc23)N[C@H](C)c2c(ccc(F)c2Cl)O1
5.1

Please report the measured IC50 for COc1cc(F)cc2c1OCCNC(=O)c1cnn3ccc(nc13)N[C@@H]2C
13.9

// Input: CC(C)N1Cc2cc(F)cc(F)c2OCCCNC(=O)c2cnn3ccc1nc23 . Output its IC50 only.
0.2

----------
For each of the compounds below, state its log10 of IC50.
# experimental.target: BTK kinase (Homo sapiens)
# Sequence (Q06187 whole entry): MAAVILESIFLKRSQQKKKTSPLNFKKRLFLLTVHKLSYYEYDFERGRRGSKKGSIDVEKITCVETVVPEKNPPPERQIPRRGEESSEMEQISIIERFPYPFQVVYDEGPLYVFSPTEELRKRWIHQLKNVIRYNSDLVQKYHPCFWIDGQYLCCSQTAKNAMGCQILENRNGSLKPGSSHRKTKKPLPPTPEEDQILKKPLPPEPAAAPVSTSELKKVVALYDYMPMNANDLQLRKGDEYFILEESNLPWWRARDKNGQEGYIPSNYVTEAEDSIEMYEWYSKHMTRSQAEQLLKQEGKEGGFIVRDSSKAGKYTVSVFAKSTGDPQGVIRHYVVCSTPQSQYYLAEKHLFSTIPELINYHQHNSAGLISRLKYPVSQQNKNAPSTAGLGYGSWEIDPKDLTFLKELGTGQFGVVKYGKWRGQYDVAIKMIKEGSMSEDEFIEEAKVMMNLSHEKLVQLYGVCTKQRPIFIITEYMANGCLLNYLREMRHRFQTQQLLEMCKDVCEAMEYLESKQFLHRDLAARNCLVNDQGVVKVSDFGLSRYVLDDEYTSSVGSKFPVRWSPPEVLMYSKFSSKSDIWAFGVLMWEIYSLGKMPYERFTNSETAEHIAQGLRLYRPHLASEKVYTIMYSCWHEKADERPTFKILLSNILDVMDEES
Values reflect log10 of reported IC50 (µM).

Indicate its recorded log10 of IC50; the compound in question is C[C@H]1CNC(=O)c2cnn3ccc(nc23)N[C@H](C)c2c(ccc(F)c2F)O1
-1.85

Quickly give me recorded log10 of IC50 for C[C@H]1Nc2ccn3ncc(c3n2)C(=O)NCCOc2c(Br)cc(F)cc21
-1.22

Note down log10 of IC50 recorded for C[C@H]1Nc2ccn3ncc(c3n2)C(=O)NCCOc2c(Cl)cc(F)cc21
-1.19

Give log10 of IC50 for the following compound: C[C@H]1CNC(=O)c2cnn3ccc(nc23)N[C@H](C)c2cc(F)cc(F)c2O1
-2.61

Note log10 of IC50 for the compound shown: C[C@H]1Nc2ccn3ncc(c3n2)C(=O)NCCOc2c(O)cc(F)cc21
-1.32

Identify measured log10 of IC50 corresponding to CC(C)Oc1cc(F)cc2c1OCCNC(=O)c1cnn3ccc(nc13)N[C@@H]2C
-0.81

Kindly indicate its recorded log10 of IC50. Item: CC(C)N1Cc2cc(F)cc(F)c2OCCNC(=O)c2cnn3ccc1nc23
-1.65

Determine its reported log10 of IC50: CC(C)N1Cc2c(ccc(F)c2Cl)O[C@@H](C)CNC(=O)c2cnn3ccc1nc23
-3.27

Determine from records and report log10 of IC50 for Cc1nn(C)cc1-c1cc(F)cc2c1O[C@@H](C)CNC(=O)c1cnn3ccc(nc13)N[C@@H]2C
-0.62

Answer with reported log10 of IC50 of CC(C)N1Cc2cc(F)cc(Cl)c2OCCNC(=O)c2cnn3ccc1nc23
-0.75

----------
# Tested on: KM12 cells (harboring endogenous TPM3-TRKA fusion gene)
# protocol.summary: KM12 cell proliferation assay (CellTiter-Glo, 72 hours)
# Format: cell-based
# experimental.context: Homo sapiens, KM12 colorectal cell line, 72 hours incubation
quantity.kind: IC50 (nM)
Quick note: give the figure in nM, leave out the unit.

Retrieve IC50 measured for C[C@H]1Nc2ccn3ncc(c3n2)C(=O)NC[C@@H](CO)Oc2ccc(F)c(Cl)c21 and print it.
45.4

Identify measured IC50 corresponding to CC(C)N1Cc2c(ccc(F)c2Cl)OCCNC(=O)c2cnn3ccc1nc23
300

Return IC50 for the following compound: CC(C)N1Cc2cc(F)cc(Cl)c2OCCNC(=O)c2cnn3ccc1nc23
0.1

Return the recorded IC50 value; entry: C[C@H]1Nc2ccn3ncc(c3n2)C(=O)NCCOc2c(-c3cnn(C)c3)cc(F)cc21
53.4
